# Tested on: SEM cells
# assay_explanation: cell viability relative to DMSO control; higher = less cytotoxic
# conditions_used: RPMI 5 mM glucose + 10% FBS; 48 h; 5.12 µM
Labelling: cell viability reported below 70% becomes 1; at or above becomes 0.

Does CO/N=C(/C(=O)N[C@@H]1C(=O)N2C(C(=O)O)=C(Cn3ccc(=N)n3CCO)CS[C@H]12)c1csc(N)n1 have cell viability strictly under 70%?
0

Does CCOC(=O)Nc1ccc(NCc2ccc(F)cc2)cc1N have cell viability strictly under 70%?
0

Does CC[C@]1(O)C[C@H]2CN(CCC3=C([NH]C4=C3C=CC=C4)[C@@](C2)(C(=O)OC)C5=CC6=C(C=C5OC)N(C=O)[C@H]7[C@](O)([C@H](OC(C)=O)[C@]8(CC)\C=C/C[N@@]9CC[C@]67[C@H]89)C(=O)OC)C1 have cell viability strictly under 70%?
1

Does C#CCN(C)[C@H](C)Cc1ccccc1 have cell viability strictly under 70%?
0

Does CN[C@H](CC(C)C)C(=O)N[C@H]1C(=O)N[C@@H](CC(N)=O)C(=O)N[C@H]2C(=O)N[C@H]3C(=O)N[C@H](C(=O)N[C@H](C(=O)O)c4cc(O)cc(O)c4-c4cc3ccc4O)[C@H](O)c3ccc(c(Cl)c3)Oc3cc2cc(c3O[C@@H]2O[C@H](CO)[C@@H](O)[C@H](O)[C@H]2O[C@H]2C[C@](C)(N)[C@H](O)[C@H](C)O2)Oc2ccc(cc2Cl)[C@H]1O have cell viability strictly under 70%?
0
